# study.system: Cytochrome P450 3A4 (Homo sapiens, UniProt P08684)
# Sequence (P08684 whole entry): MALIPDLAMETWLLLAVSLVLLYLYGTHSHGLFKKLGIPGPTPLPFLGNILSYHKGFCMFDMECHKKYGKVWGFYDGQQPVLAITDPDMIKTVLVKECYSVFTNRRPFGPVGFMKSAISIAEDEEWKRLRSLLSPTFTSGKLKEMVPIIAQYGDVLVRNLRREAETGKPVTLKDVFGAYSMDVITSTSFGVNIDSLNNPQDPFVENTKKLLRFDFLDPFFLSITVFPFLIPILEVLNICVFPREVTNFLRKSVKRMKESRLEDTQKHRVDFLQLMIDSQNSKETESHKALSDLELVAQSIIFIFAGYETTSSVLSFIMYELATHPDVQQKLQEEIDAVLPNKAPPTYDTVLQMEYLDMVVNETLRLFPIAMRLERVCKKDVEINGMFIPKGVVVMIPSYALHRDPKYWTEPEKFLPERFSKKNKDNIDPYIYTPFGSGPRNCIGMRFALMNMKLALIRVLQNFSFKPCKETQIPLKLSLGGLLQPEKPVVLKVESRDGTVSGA
measured.property: IC50
Lab note: write values as number then unit, every time.

Recorded IC50 for CCCCN1C(=O)C(CC2CCCCC2)NC(=O)C12CCN(Cc1ccc(Oc3ccccc3)cc1)CC2.Cl (stereo unspecified) on Cytochrome P450 3A4 (Homo sapiens, UniProt P08684) was 9.3 µM

* * *

In this section, each of the compounds is paired with its reported bioavailability.
# experimental.protocol: Bioavailability in rat
# Assay type: ADME, organism-based
# study.conditions: in vivo

// worked examples, bioavailability included
| compound | bioavailability |
| --- | --- |
| CCCCN1C(=O)[C@@H]([C@H](O)C2CCCCC2)NC(=O)C12CCN(Cc1ccc(Oc3ccccc3)cc1)CC2.Cl | < 1% |
| CCCCN1C(=O)[C@@H]([C@H](O)C(C)C)NC(=O)C12CCN(Cc1ccc(Oc3ccccc3)cc1)CC2.Cl | < 1% |

Consider now this further compound.
Quick note, bioavailability for CCCCN1C(=O)C(CC(C)C)NC(=O)C12CCN(Cc1ccc(Oc3ccccc3)cc1)CC2.Cl (stereo not drawn) landed at 1.3%

* * *

# study.system: C-C chemokine receptor type 5 (Homo sapiens)
# experimental.protocol: Antagonist activity at human CCR5 expressed in CHO cells assessed as inhibition of MIP-1-alpha-stimulated calcium mobilization
# Assay type: functional, cell-based
Let's look at some compounds and their measured log10(IC50).
Scale: decimal log of IC50, IC50 in nM.

| compound | measured.property | number |
| --- | --- | --- |
| CCCCN1C(=O)C(CC(C)(C)O)NC(=O)C12CCN(Cc1ccc(Oc3ccccc3)cc1)CC2 (centres undefined) | log10(IC50) | 1.90 |
| CCCCN1C(=O)[C@@H]([C@H](O)C(C)C)NC(=O)C12CCN(Cc1ccc(Oc3ccccc3)cc1)CC2.Cl | log10(IC50) | 1.52 |
| CCCCN1C(=O)[C@@H]([C@@H](O)C(C)C)NC(=O)C12CCN(Cc1ccc(Oc3ccccc3)cc1)CC2 | log10(IC50) | 2.32 |
| CCCCN1C(=O)[C@@H](CC(C)C)NC(=O)C12CCN(Cc1ccc(Oc3ccccc3)cc1)CC2 | log10(IC50) | 2.11 |
| CCCCN1C(=O)C(CC2CCCCC2)NC(=O)C12CCN(Cc1ccc(Oc3ccccc3)cc1)CC2.Cl (centres undefined) | log10(IC50) | 1.45 |
| CCCCN1C(=O)[C@H]([C@@H](O)C(C)C)NC(=O)C12CCN(Cc1ccc(Oc3ccccc3)cc1)CC2 | log10(IC50) | 2.18 |

// recorded log10(IC50) for CCCCN1C(=O)C(CC(C)C)NC(=O)C12CCN(Cc1ccc(Oc3ccccc3)cc1)CC2.Cl (centres undefined) : 1.97

get_value(item= CCCCN1C(=O)[C@H]([C@H](O)C(C)C)NC(=O)C12CCN(Cc1ccc(Oc3ccccc3)cc1)CC2 , readout=log10(IC50)) returns 2.60

The recorded log10(IC50) for entry CCCCN1C(=O)[C@H](CC(C)C)NC(=O)C12CCN(Cc1ccc(Oc3ccccc3)cc1)CC2 equals 1.92

* * *

# pIC50 per record follows
# study.system: C-C chemokine receptor type 5 (Homo sapiens, UniProt P51681)
# Sequence (P51681 whole entry): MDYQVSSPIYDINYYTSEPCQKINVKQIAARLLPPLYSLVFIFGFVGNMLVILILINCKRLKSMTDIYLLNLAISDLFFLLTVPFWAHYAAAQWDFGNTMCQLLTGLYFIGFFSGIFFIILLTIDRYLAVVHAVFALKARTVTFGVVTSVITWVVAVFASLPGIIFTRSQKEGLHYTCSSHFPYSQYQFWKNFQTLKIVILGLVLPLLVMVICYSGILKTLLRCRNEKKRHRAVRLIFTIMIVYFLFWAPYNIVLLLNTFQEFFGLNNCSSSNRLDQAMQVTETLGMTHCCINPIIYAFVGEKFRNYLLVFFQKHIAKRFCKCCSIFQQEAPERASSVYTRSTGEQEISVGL
# experimental.protocol: Displacement of [125I]MIP1-alpha from human CCR5 expressed in CHO cells
# Type: cell-based
pIC50 here: minus log base 10 of the concentration, concentration in moles per litre.

Use these answered entries as a reference point.
| compound | pIC50 |
| --- | --- |
| CCCCN1C(=O)C(CC(C)(C)O)NC(=O)C12CCN(Cc1ccc(Oc3ccccc3)cc1)CC2 (stereo not drawn) | 7.55 |
| CCCCN1C(=O)C(CC(C)C)NC(=O)C12CCN(Cc1ccc(Oc3ccccc3)cc1)CC2.Cl (stereo not drawn) | 8.08 |
| CCCCN1C(=O)[C@H](CC(C)C)NC(=O)C12CCN(Cc1ccc(Oc3ccccc3)cc1)CC2 | 7.96 |
| CCCCN1C(=O)[C@H]([C@H](O)C(C)C)NC(=O)C12CCN(Cc1ccc(Oc3ccccc3)cc1)CC2 | 7.17 |
| CCCCN1C(=O)[C@@H](CC(C)C)NC(=O)C12CCN(Cc1ccc(Oc3ccccc3)cc1)CC2 | 7.54 |
| CCCCN1C(=O)[C@H]([C@@H](O)C(C)C)NC(=O)C12CCN(Cc1ccc(Oc3ccccc3)cc1)CC2 | 7.28 |
| CCCCN1C(=O)[C@@H]([C@H](O)C(C)C)NC(=O)C12CCN(Cc1ccc(Oc3ccccc3)cc1)CC2.Cl | 8.46 |

Notebook: CCCCN1C(=O)[C@@H]([C@@H](O)C(C)C)NC(=O)C12CCN(Cc1ccc(Oc3ccccc3)cc1)CC2 , pIC50 read as 7.62

The measurements presented in this section are drawn from ChEMBL document CHEMBL1146303.
